molecular target: EPHB1 (UniProt P54762); experiment: phosphorylation enrichment, bacterial display (enrichment ratio); higher = better substrate or ligand; peptides without Tyr show the background;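 also: 11-residue human phosphosite peptides and single-mutation variants displayed on the E. coli surface, counted by deep sequencing, each peptide's frequency after selection divided by its frequency in the unselected input library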;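 also: frequency after pTyr selection over input frequency; kinase dosed for 20-30% of maximal phosphorylation in three min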
Sequence (P54762 whole entry, looked up): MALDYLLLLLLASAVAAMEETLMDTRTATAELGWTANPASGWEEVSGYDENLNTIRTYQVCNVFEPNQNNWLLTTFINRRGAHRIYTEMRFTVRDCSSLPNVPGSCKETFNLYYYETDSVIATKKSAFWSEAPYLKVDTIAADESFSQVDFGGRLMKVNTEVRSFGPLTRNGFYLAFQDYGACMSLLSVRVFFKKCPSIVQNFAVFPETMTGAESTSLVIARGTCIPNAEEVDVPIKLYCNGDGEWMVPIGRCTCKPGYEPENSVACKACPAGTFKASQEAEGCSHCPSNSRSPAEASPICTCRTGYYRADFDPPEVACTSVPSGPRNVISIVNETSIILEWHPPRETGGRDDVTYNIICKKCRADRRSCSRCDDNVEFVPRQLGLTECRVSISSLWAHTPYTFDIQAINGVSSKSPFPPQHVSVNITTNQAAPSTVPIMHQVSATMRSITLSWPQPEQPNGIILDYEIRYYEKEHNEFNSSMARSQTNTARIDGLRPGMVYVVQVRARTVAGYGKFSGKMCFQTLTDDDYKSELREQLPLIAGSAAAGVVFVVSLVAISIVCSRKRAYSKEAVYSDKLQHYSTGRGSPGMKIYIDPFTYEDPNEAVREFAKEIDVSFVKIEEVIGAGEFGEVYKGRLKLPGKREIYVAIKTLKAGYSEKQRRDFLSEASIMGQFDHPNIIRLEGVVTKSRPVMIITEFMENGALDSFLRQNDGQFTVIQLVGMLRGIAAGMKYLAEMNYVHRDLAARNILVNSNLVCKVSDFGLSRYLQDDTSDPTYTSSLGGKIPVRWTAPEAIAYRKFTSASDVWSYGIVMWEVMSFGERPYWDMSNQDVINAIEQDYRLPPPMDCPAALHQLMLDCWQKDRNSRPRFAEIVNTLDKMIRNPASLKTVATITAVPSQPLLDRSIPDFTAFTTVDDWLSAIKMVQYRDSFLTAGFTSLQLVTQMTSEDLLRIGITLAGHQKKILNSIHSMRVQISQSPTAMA
measure: phosphorylation enrichment
Give bare numbers.

These recorded examples may help you get a feel for the data.
EDKSIYRRGAC [PRKCI_Y125_R130C]: 0.34
LLIMEYAKYGS [RET_Y806_V804M]: 1.4
CTTIHYNDMCN [TP53_Y234_Y236D]: 0.451
DTQNSYRCATS [TSC1_Y304_G305R]: 0.389
QSRSPYSSRHS [CDK13_Y415_R410Q]: 0.471

I need phosphorylation enrichment for every entry listed below, if you could help.
1. TSLAQYDSNSK [BMX_Y216]
2. FRVDCYKNFVA [FHL1_Y213_C209R_YF]

Response:
0.352
0.783

---

molecular target: FGFR1 (UniProt P11362); assay: phosphorylation enrichment, bacterial display (enrichment ratio); higher = better substrate or ligand; peptides without Tyr show the background
Sequence (P11362 whole entry, looked up): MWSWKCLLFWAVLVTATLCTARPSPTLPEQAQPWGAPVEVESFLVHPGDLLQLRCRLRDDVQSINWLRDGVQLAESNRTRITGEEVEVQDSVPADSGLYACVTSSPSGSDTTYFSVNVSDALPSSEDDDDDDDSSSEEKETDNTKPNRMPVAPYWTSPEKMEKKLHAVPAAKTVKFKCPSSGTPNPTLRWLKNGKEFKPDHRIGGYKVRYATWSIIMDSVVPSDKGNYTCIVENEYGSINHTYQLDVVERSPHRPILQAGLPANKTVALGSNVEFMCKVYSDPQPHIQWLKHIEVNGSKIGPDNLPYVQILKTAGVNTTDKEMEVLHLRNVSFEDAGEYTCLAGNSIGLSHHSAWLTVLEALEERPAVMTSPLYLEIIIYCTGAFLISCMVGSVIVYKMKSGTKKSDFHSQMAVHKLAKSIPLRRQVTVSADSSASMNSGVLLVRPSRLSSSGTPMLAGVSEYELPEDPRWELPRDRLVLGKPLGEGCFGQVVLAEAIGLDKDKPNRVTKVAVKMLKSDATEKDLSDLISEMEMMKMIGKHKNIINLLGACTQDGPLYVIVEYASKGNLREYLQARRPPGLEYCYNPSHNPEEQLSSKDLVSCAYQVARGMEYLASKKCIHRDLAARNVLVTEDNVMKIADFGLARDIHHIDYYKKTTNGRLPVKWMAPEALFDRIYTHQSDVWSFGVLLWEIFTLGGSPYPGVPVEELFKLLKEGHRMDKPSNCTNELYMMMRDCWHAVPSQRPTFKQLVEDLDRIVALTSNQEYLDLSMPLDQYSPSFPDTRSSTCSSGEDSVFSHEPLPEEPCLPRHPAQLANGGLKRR
measure: phosphorylation enrichment

These recorded examples may help you get a feel for the data.
GEFHVYRHLRR [PRKRIP1_Y82]: 0.57
LQKNIYSEELR [LMNA_Y211_F206L]: 1.79

I need phosphorylation enrichment for every entry listed below, if you could help.
1. RKMSSYAFFVQ [HMGB1_Y16_G11R]
2. IRTDAYVPAMT [RPE65_Y89_R91P]

Response:
[0.644, 0.399]

I need phosphorylation enrichment for every entry listed below, if you could help.
1. GFCSWYRGWAP [TIMP3_Y195_YF]
2. DAKTIYDFTDT [PDK1_Y136_A134T]

Response:
1. 0.514
2. 0.508

---

system: Fer (mouse); experiment: phosphorylation enrichment, bacterial display (enrichment ratio); higher = better substrate or ligand; peptides without Tyr show the background
Please respond with reported phosphorylation enrichment for every item in the list.
Numbers only.

QTLTDYDTRFY [CSNK2A3_Y131_I133T]: 0.749
FRAVKYLQMVG [AVPR2_Y117_C112Y_YF]: 0.366
VLSIDYYFPPQ [AR_Y552_P549S]: 0.605
NKHTTYTMEHI [ACTN1_Y708_N707T]: 0.397
DLDLTSIFPNI [PTEN_Y27_Y27S_YF]: 0.441

I need phosphorylation enrichment for every entry listed below, if you could help.
1. GGEAIYAAPFA [Abl_opt_1995]
2. PLKFLYPNIDK [STAT1_Y668_YF]
3. PVQAAYQKVVD [HBB_Y131_A136D]
4. GGGMIYPLDLF
5. MEFLPYGSLRD [JAK2_Y934_YF]
6. NREGVYTVSAP [TGFBI_Y537_F540S]
7. QTPVLYTMLDH [MPZ_Y220_A221T]
8. RQSRNYLGGFA [SYK_Y47]

Response:
20.5
1.13
0.384
0.534
0.832
1.12
10.7
0.404

Request: Reported phosphorylation enrichment for KDQGIYEDFVE [MYL6_Y86_T85I_YF] : what is it?
Response: 1.82

---

biological target: Hck (UniProt P08631); assay: phosphorylation enrichment, bacterial display (enrichment ratio); higher = better substrate or ligand; peptides without Tyr show the background
Sequence (P08631 whole entry, looked up): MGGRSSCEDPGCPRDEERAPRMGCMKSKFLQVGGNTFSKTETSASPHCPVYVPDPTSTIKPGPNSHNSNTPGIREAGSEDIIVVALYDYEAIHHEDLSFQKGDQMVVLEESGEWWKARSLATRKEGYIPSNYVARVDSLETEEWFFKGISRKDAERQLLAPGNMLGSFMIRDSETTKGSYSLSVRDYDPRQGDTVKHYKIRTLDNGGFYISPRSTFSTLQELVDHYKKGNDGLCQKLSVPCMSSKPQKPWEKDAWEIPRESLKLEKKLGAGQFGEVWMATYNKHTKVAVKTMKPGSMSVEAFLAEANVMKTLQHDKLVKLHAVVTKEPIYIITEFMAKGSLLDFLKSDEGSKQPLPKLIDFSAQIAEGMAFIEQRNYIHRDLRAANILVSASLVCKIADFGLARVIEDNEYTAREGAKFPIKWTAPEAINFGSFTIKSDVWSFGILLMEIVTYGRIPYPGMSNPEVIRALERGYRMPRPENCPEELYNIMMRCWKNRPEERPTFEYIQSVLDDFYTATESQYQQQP
Note to self: values exactly at 0.5 are Fulfilled. So phosphorylation enrichment at or above 0.5 is Fulfilled, below is Not fulfilled.

Below are worked cases with known answers.
STSKTYVISQT [RBBP6_Y87_R91Q]: Not fulfilled
TKQLTYEEQDL [PIK3C3_Y310]: Fulfilled
RNIQQCNSFVS [PRKAR1A_Y373_Y373C]: Fulfilled
EEQKKYYNATK [SCN5A_Y1494_M1498T]: Not fulfilled
ADRARYSAFGG [RBM4_Y361]: Not fulfilled
DDEVFYSPRSL [OTC_Y317]: Fulfilled
GYKVRYATGSI [FGFR1_Y210_W213G]: Not fulfilled
FIATQYSLRPR [LBR_Y166_YF]: Not fulfilled
FKDGQYWIRGQ [ACSF3_Y466_R471Q]: Fulfilled
MEIHAYRKLLE [LMNA_Y376]: Not fulfilled

Request: Please indicate if the recorded phosphorylation enrichment for YKEQGYHRLPP [RIN1_Y681] meets or exceeds 0.5.
Response: Not fulfilled

Request: Please indicate if the recorded phosphorylation enrichment for SRGSSYNSIPK [FLNC_Y2625_S2626N] meets or exceeds 0.5.
Response: Not fulfilled
